Data provenance is patent US20250041298A1.

Test: Phase 1/1b clinical trial: plasma pharmacokinetics of PF-07220060
Format: in vivo, human
Settings: human, plasma, po, 400 mg BID oral + letrozole (Part 1B); C1D1 post first dose; geometric mean; read-out: AUC12
PARAMETER: AUC (ng·h/mL)
Give the quantity in ng·h/mL, number only.

// query Reported AUC for CC(C)n1c(C(C)(C)O)nc2c(F)cc(-c3nc(N[C@@H]4CCOC[C@H]4O)ncc3Cl)cc21 [PF-07220060] : what is it?
// result 7110

###

Test: Phase 1/1b clinical trial: plasma pharmacokinetics of PF-07220060
Format: in vivo, human
Conditions: human, plasma, po, 200 mg, 200 mg BID oral monotherapy (Part 1A); C1D1 post first dose; geometric mean
PARAMETER: Cmax (ng/mL)
Give the quantity in ng/mL, number only.

// query Reported Cmax for CC(C)n1c(C(C)(C)O)nc2c(F)cc(-c3nc(N[C@@H]4CCOC[C@H]4O)ncc3Cl)cc21 : what is it?
// result 454
